B1: ZNF8 (parent)
chain: RIHTGERPYMCKECGKAFSQNSSL

# Variants of: B1
# METHOD_DESCRIPTION: protein stability index of a GFP-peptide fusion (GPS, HEK-293T) (PSI 1-6); higher = more stable;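 also: lentivirally expressed fusions sorted by FACS into six bins by GFP to DsRed ratio, PSI derived from sequencing read proportions per bin multiplied by bin number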
# REPORTED_CONDITIONS: c terminus: a fixed tail appended
RECORDED_ENDPOINT: protein stability index
Kindly provide the number alone.

The examples below pair each entry with its known result.
Lookup: What value of protein stability index has been reported for the following variant? L24A
Found: 2.99

Lookup: # protein stability index lookup, item G5P
Found: 3.02

Next:
Lookup: Which protein stability index is listed for S19D ?
Found: 3.09
